Give Nav1.7 Swarm (score at 3 µM) for every item shown.
- System: human Nav.1.7 (Homo sapiens, UniProt Q15858)
- Construct: expressed in transfected cells
- Sequence (Q15858 whole entry): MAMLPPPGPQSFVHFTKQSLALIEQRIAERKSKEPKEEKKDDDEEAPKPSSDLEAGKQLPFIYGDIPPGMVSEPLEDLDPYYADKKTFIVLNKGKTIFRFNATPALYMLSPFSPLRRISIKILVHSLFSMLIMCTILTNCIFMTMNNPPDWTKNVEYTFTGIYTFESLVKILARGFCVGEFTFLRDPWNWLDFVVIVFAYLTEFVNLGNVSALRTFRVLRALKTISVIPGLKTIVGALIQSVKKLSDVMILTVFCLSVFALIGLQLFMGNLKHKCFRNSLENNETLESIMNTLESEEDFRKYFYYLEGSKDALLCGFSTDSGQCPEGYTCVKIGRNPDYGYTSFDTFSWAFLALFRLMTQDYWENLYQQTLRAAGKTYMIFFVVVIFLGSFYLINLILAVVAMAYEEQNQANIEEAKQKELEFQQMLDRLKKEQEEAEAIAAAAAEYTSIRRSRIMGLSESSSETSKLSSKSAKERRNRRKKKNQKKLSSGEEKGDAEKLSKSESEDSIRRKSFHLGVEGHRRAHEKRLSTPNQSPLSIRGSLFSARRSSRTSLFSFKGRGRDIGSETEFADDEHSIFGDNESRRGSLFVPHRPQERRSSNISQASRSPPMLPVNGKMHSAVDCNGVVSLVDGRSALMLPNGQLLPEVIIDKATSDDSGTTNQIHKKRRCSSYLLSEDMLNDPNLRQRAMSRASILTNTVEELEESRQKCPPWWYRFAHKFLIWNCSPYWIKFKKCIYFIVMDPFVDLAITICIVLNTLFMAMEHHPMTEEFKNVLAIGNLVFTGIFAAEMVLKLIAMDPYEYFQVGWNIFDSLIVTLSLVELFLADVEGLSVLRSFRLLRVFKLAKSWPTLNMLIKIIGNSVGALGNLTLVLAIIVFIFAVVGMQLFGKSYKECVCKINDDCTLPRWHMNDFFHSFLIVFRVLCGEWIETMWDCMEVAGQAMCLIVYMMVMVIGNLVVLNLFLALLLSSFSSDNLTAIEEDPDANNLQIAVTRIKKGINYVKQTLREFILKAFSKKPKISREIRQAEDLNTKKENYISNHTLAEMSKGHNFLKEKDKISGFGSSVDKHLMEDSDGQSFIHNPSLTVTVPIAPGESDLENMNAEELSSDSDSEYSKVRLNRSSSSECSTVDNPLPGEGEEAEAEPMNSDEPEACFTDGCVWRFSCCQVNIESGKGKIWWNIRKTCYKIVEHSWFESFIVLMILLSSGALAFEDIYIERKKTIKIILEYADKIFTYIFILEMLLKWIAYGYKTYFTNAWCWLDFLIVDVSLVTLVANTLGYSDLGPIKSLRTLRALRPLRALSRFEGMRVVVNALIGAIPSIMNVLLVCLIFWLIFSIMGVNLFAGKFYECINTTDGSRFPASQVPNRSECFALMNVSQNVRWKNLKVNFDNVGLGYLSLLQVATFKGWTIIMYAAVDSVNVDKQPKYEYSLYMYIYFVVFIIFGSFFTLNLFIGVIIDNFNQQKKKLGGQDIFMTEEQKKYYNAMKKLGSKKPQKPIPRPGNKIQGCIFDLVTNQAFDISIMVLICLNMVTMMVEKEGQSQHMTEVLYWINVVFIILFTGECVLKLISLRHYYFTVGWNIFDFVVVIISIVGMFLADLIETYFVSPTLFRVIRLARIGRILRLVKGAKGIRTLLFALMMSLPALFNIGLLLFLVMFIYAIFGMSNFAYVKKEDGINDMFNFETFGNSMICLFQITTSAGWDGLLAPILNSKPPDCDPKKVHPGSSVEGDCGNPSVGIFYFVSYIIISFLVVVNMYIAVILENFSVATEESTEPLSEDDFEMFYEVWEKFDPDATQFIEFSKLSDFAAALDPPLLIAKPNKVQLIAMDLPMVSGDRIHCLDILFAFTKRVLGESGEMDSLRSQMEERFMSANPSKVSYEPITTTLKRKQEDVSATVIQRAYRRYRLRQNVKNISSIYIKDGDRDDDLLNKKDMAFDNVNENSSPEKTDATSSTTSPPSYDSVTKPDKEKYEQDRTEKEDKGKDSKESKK
- Assay summary: Nav1.7 spiking HEK assay on Swarm
- Type: cell-based
Numbers only.

# count of solved cases: 8
| Molecule | System | Nav1.7 Swarm (score at 3 µM) |
| --- | --- | --- |
| Cc1cc2c(s1)Nc1ccccc1N=C2N1CCN(C)CC1 [Olanzapine] | human Nav.1.7 (Homo sapiens, UniProt Q15858) | 1.09 |
| CCN(CC)CCCC(C)Nc1ccnc2cc(Cl)ccc12 (stereo not shown) [Chloroquine] | human Nav.1.7 (Homo sapiens, UniProt Q15858) | 0.98 |
| Nc1nnc(-c2cccc(Cl)c2Cl)c(N)n1 [Lamotrigine] | human Nav.1.7 (Homo sapiens, UniProt Q15858) | 0.99 |
| CN(C)CCCN1c2ccccc2CCc2ccc(Cl)cc21 [Clomipramine] | human Nav.1.7 (Homo sapiens, UniProt Q15858) | 0.20 |
| CN[C@H]1CC[C@@H](c2ccc(Cl)c(Cl)c2)c2ccccc21 [Sertraline] | human Nav.1.7 (Homo sapiens, UniProt Q15858) | 0.87 |
| Cc1nc2n(c(=O)c1CCN1CCC(c3noc4cc(F)ccc34)CC1)CCCC2 [Risperidone] | human Nav.1.7 (Homo sapiens, UniProt Q15858) | 0.89 |
| CCCCc1oc2ccccc2c1C(=O)c1cc(I)c(OCCN(CC)CC)c(I)c1 [Amiodarone] | human Nav.1.7 (Homo sapiens, UniProt Q15858) | 0.52 |
| CNCCC(Oc1ccc(C(F)(F)F)cc1)c1ccccc1 (stereo not shown) [Fluoxetine] | human Nav.1.7 (Homo sapiens, UniProt Q15858) | 0.64 |

For each listed entry, give its Nav1.7 Swarm (score at 3 µM).
1. CCN(CC)CC(=O)Nc1c(C)cccc1C [Lidocaine]
2. CN(C)C(=O)C(CCN1CCC(O)(c2ccc(Cl)cc2)CC1)(c1ccccc1)c1ccccc1 [Loperamide]

Solution:
1: 0.91; 2: 0.04
